System: P388 leukemia ip, CD2F1 mice, survival T/C
Assay: NCI In Vivo Anticancer Drug Screen. Data for tumor model P388 Leukemia (intraperitoneal) in CD2F1 (CDF1) mice
Conditions: endpoint: median survival time; dose: 50.0 mg/kg/injection; schedule: Q01DX005 (ip); vehicle: saline with Tween-80; higher = longer survival
Inconclusive results and toxic doses are left out.
Please respond with reported T/C for every item in the list.

Record Cc1ccc(S(=O)(=O)NC(CCC(N)=O)C(=O)O)cc1 (stereo unspecified) . Reported T/C: 100 % of control

Record O=C1c2ccccc2C(=O)N1N1CC1c1ccccc1 (stereo unspecified) . Reported T/C: 106 % of control

Record CCOC(=O)/C(Cl)=C1\SN(C(=O)OCC)N=C1C . Reported T/C: 99 % of control

Record O=C1C=CC(=Nc2cc(Cl)c(O)c(Cl)c2)C=C1 . Reported T/C: 96 % of control

Record CC(=O)N(C(C)=O)N(C(C)=O)c1cc2ccccc2cn1 . Reported T/C: 88 % of control

Record CCCC1(CC(=O)OCC)SCCN1C(=O)OCC (stereo unspecified) . Reported T/C: 102 % of control

Record O=c1[nH]c(=O)c2cc3[nH]ncc3cc2[nH]1 . Reported T/C: 93 % of control

Record CCCCCCCCCCSc1n[nH]c(=S)s1 . Reported T/C: 100 % of control

Record Cc1ccc(N/N=c2\c3nc4ccccc4nc2n(-c2ccccc2C)c(=S)n3-c2ccccn2)cc1 . Reported T/C: 100 % of control

Record COc1cccc(/C=C/C(C)=N/NC(N)=S)c1 . Reported T/C: 118 % of control

Record COC(=O)[C@H]1[C@H]2C[C@@H]3c4[nH]c5cc(OC)ccc5c4CCN3C[C@H]2C[C@@H](OC(=O)CC(C)=O)[C@@H]1OC . Reported T/C: 95 % of control
